# measured.on: AMP-activated protein kinase, AMPK (Homo sapiens) (UniProt P54646+O43741+P54619+Q9UGJ0+Q9Y478+Q13131+Q9UGI9)
# assay.overview: AMP-dependent Kinase enzyme assay. An in vitro enzyme assay that detects ADP turnover that is directly proportional to AMPK activity. This uses naive AMPK that is activated during the assay with MK-8722
# Format: functional
# Parameters: scale not given: direction of the effect not stated beside the values
# condition.summary: 30 µM
metric: Percent Effect (%)
Your answer is read as %, so omit the unit and give the number.

Qu. Item CCc1nc(C2CCCN2Cc2nc(C3CC3)no2)no1 (stereo unspecified) has what recorded Percent Effect?
Ans. -1.94

Qu. Item CC(C)c1ncc2c(n1)CN(Cc1cccc(C#N)c1)CC2 has what recorded Percent Effect?
Ans. -28.8

Qu. Item CN(Cc1ccccn1)C(=O)[C@]12COC[C@H]1CN(Cc1cnn(C)c1)C2 has what recorded Percent Effect?
Ans. 0.223

Qu. Item O=C(Cc1cccc(F)c1)NCCNCc1cccc(O)c1 has what recorded Percent Effect?
Ans. 13.5

Qu. Item c1ncn(CC2CCCN(Cc3nc(C4CC4)no3)C2)n1 (stereo unspecified) has what recorded Percent Effect?
Ans. -7.43

Qu. Item Cc1cc(C)n(C2CN(CC(=O)NC3CCOCC3)C2)n1 has what recorded Percent Effect?
Ans. 6.98
